System: HCV replicon with a D168E mutation in a 1a-H77 background
protocol details: transient replicon assay, D168E mutation in 1a-H77 background
Assay type: cell-based, hepatitis C virus (genotype 1a-H77)
condition info: Hepatitis C virus, read-out: EC50 in a transient replicon assay with a D168E mutation in a 1a-H77 background
Description: Replicon cell lines can be maintained in Dulbecco's modified Eagles medium (DMEM) containing 100 IU/ml penicillin, […] streptomycin (Invitrogen), […] G418 (Invitrogen) and 10% (v/v) fetal bovine serum (FBS). […] The inhibitory effects of compounds against the replicons can be determined by measuring either the level of luciferase or HCV RNA. […] Luciferin solution (50 μl, Promega) is added, and luciferase activity is measured with a Victor II luminometer (Perkin-Elmer). […]
property name: EC50

Sample `Cc1nc2cccc(F)c2nc1O[C@@H]1C[C@H]2C(=O)N[C@]3(C(=O)NS(=O)(=O)C4CC4)C[C@H]3/C=C\CCCCC[C@H](NC(=O)OC(C)(C)C)C(=O)N2C1` , system: HCV replicon with a D168E mutation in a 1a-H77 background. Its EC50 is 20 to 50 nM

Sample `CCc1nc2cccc(F)c2nc1O[C@@H]1C[C@H]2C(=O)N[C@]3(C(=O)NS(=O)(=O)C4CC4)C[C@H]3/C=C\CCCCC[C@H](NC(=O)OC(C)(C)C)C(=O)N2C1` , system: HCV replicon with a D168E mutation in a 1a-H77 background. Its EC50 is 20 to 50 nM

Sample `Cc1cc(C(=O)N[C@H]2CCCCC/C=C\[C@@H]3C[C@@]3(C(=O)NS(=O)(=O)C3CC3)NC(=O)[C@@H]3C[C@@H](Oc4nc5c(F)cccc5nc4C(F)(F)F)CN3C2=O)no1` , system: HCV replicon with a D168E mutation in a 1a-H77 background. Its EC50 is < 3 nM

====

System: HCV replicon with a D168E mutation in a 1a-H77 background
protocol details: transient replicon assay, D168E mutation in 1a-H77 background
Format: cell-based, hepatitis C virus (genotype 1a-H77)
condition info: Hepatitis C virus, read-out: EC50 in a transient replicon assay with a D168E mutation in a 1a-H77 background
pEC50: −log10 of the molar value.
property name: pEC50

Sample `Cc1cc(C(=O)N[C@H]2CCCCC/C=C\[C@@H]3C[C@@]3(C(=O)NS(=O)(=O)C3(C)CC3)NC(=O)[C@@H]3C[C@@H](Oc4nc5cc(F)ccc5nc4C(C)(F)F)CN3C2=O)no1` , system: HCV replicon with a D168E mutation in a 1a-H77 background. Its pEC50 is > 8.52

Sample `CC(C)(C)OC(=O)N[C@H]1CCCCC/C=C\[C@@H]2C[C@@]2(C(=O)NS(=O)(=O)C2CC2)NC(=O)[C@@H]2C[C@@H](Oc3nc4ccccc4nc3C(C)(F)F)CN2C1=O` , system: HCV replicon with a D168E mutation in a 1a-H77 background. Its pEC50 is 7.70 to 8.52

Sample `CCc1nc2ccc(F)cc2nc1O[C@@H]1C[C@H]2C(=O)N[C@]3(C(=O)NS(=O)(=O)C4CC4)C[C@H]3/C=C\CCCCC[C@H](NC(=O)c3ccon3)C(=O)N2C1` , system: HCV replicon with a D168E mutation in a 1a-H77 background. Its pEC50 is 7.30 to 7.70

Sample `Cc1cc(C(=O)N[C@H]2CCCCC/C=C\[C@@H]3C[C@@]3(C(=O)NS(=O)(=O)C3(C)CC3)NC(=O)[C@@H]3C[C@@H](Oc4nc5c(F)cccc5nc4C(F)(F)F)CN3C2=O)no1` , system: HCV replicon with a D168E mutation in a 1a-H77 background. Its pEC50 is > 8.52

Sample `Cc1cnc(C(=O)N[C@H]2CCCCC/C=C\[C@@H]3C[C@@]3(C(=O)NS(=O)(=O)C3CC3)NC(=O)[C@@H]3C[C@@H](Oc4nc5ccccc5nc4C(F)(F)F)CN3C2=O)cn1` , system: HCV replicon with a D168E mutation in a 1a-H77 background. Its pEC50 is < 7.00

====

I'd be grateful if you could share measured pEC50 for these entries.
Tested on: HCV replicon with a R155K mutation in a 1a-H77 background
protocol details: transient replicon assay, R155K mutation in 1a-H77 background
Type: cell-based, hepatitis C virus (genotype 1a-H77)
condition info: Hepatitis C virus, read-out: EC50 in a transient replicon assay with a R155K mutation in a 1a-H77 background
pEC50: −log10 of the molar value.

In plain terms, `Cc1nc2cccc(F)c2nc1O[C@@H]1C[C@H]2C(=O)N[C@]3(C(=O)NS(=O)(=O)C4CC4)C[C@H]3/C=C\CCCCC[C@H](NC(=O)c3ccon3)C(=O)N2C1` has a documented pEC50 of 8.00 to 9.00

In plain terms, `Cc1onc(C(=O)N[C@H]2CCCCC/C=C\[C@@H]3C[C@@]3(C(=O)NS(=O)(=O)C3(C)CC3)NC(=O)[C@@H]3C[C@@H](Oc4nc5cc(F)ccc5nc4C(C)(F)F)CN3C2=O)c1C` has a documented pEC50 of > 9.00

In plain terms, `Cc1cc(C(=O)N[C@H]2CCCCC/C=C\[C@@H]3C[C@@]3(C(=O)NS(=O)(=O)C3(C)CC3)NC(=O)[C@@H]3C[C@@H](Oc4nc5cc(F)cc(Br)c5nc4C)CN3C2=O)no1` has a documented pEC50 of > 9.00

In plain terms, `CCc1nc2cccc(F)c2nc1O[C@@H]1C[C@H]2C(=O)N[C@]3(C(=O)NS(=O)(=O)C4CC4)C[C@H]3/C=C\CCCCC[C@H](NC(=O)c3cc(C)on3)C(=O)N2C1` has a documented pEC50 of 8.00 to 9.00

====

I'd be grateful if you could share measured pEC50 for these entries.
Tested on: HCV replicon with a D168E mutation in a 1a-H77 background
protocol details: transient replicon assay, D168E mutation in 1a-H77 background
Format: cell-based, hepatitis C virus (genotype 1a-H77)
condition info: Hepatitis C virus, read-out: EC50 in a transient replicon assay with a D168E mutation in a 1a-H77 background
pEC50: −log10 of the molar value.

In plain terms, `Cc1ccsc1C(=O)N[C@H]1CCCCC/C=C\[C@@H]2C[C@@]2(C(=O)NS(=O)(=O)C2CC2)NC(=O)[C@@H]2C[C@@H](Oc3nc4ccccc4nc3C(F)(F)F)CN2C1=O` has a documented pEC50 of 7.70 to 8.52

In plain terms, `Cc1cc(C(=O)N[C@H]2CCCCC/C=C\[C@@H]3C[C@@]3(C(=O)NS(=O)(=O)C3(C)CC3)NC(=O)[C@@H]3C[C@@H](Oc4nc5c(F)cccc5nc4C)CN3C2=O)no1` has a documented pEC50 of 7.70 to 8.52

In plain terms, `Cc1cc(C(=O)N[C@H]2CCCCC/C=C\[C@@H]3C[C@@]3(C(=O)NS(=O)(=O)C3(C)CC3)NC(=O)[C@@H]3C[C@@H](Oc4nc5cc(F)ccc5nc4C(F)(F)F)CN3C2=O)no1` has a documented pEC50 of > 8.52

In plain terms, `CCc1nc2ccc(F)cc2nc1O[C@@H]1C[C@H]2C(=O)N[C@]3(C(=O)NS(=O)(=O)C4CC4)C[C@H]3/C=C\CCCCC[C@H](NC(=O)c3noc(C)c3C)C(=O)N2C1` has a documented pEC50 of 7.70 to 8.52

In plain terms, `CC(C)(C)C(=O)N[C@H]1CCCCC/C=C\[C@@H]2C[C@@]2(C(=O)NS(=O)(=O)C2CC2)NC(=O)[C@@H]2C[C@@H](Oc3nc4ccccc4nc3C(C)(F)F)CN2C1=O` has a documented pEC50 of 7.70 to 8.52

In plain terms, `Cc1cc(C(=O)N[C@H]2CCCCC/C=C\[C@@H]3C[C@@]3(C(=O)NS(=O)(=O)C3CC3)NC(=O)[C@@H]3C[C@@H](Oc4nc5cc(F)cc(Br)c5nc4C)CN3C2=O)no1` has a documented pEC50 of 7.70 to 8.52

In plain terms, `Cc1nc2cccc(F)c2nc1O[C@@H]1C[C@H]2C(=O)N[C@]3(C(=O)NS(=O)(=O)C4CC4)C[C@H]3/C=C\CCCCC[C@H](NC(=O)c3noc(C)c3C)C(=O)N2C1` has a documented pEC50 of 7.70 to 8.52

In plain terms, `Cc1cc(C(=O)N[C@H]2CCCCC/C=C\[C@@H]3C[C@@]3(C(=O)NS(=O)(=O)C3CC3)NC(=O)[C@@H]3C[C@@H](Oc4nc5ccccc5nc4C(C)(F)F)CN3C2=O)no1` has a documented pEC50 of > 8.52
